ASSAY_COMMENT: small-molecule microarray binders of probe aXIP, primary screen, biochemical, NeuroSMM set, 635/667 nm fluorescence (AID 1119);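 also: probe is the protein aXip251-270 applied at 1 µg/mL to compound-printed slides; binding of probe to printed compounds measured as 667 nm fluorescence plus signal to noise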
CONDITIONS: higher = more signal, called active from +8 up or from −8 down
OBSERVATION_TYPE: composite Z-score

compound=C[N+](C)(C)CCCC[C@@H]1NC(=O)[C@@H]2C[C@H](C(=O)O)[C@H](c3ccc(O)cc3)N2C1=O observation_type="composite Z-score" observed_result=-0.238
compound=CN(C)C(=O)[C@]1(CCC(=O)OC(C)(C)C)N=C(c2ccc(OCCCO)cc2)O[C@@H]1c1ccccc1 observation_type="composite Z-score" observed_result=0.666
compound=O=C1O[C@@H](c2ccccc2)[C@@H](c2ccccc2)N2[C@@H](c3ccccc3OCCO)[C@]3(C(=O)Nc4ccc(C#CCCO)cc43)[C@@H](C(=O)Nc3nc4ccccc4s3)[C@H]12 observation_type="composite Z-score" observed_result=0.229
compound=O=C1O[C@@H](c2ccccc2)[C@@H](c2ccccc2)N2[C@@H](c3ccc(O)cc3)[C@]3(C(=O)Nc4ccc(C#CC5=CCCCC5)cc43)[C@@H](C(=O)N3CCN(c4ncccn4)CC3)[C@H]12 observation_type="composite Z-score" observed_result=0.131
compound="COc1ccc(C(O)C2C=CC3C(=O)N(C)C(=O)C3N2N2CCCCC2)cc1 (stereo not given)" observation_type="composite Z-score" observed_result=0.0811
compound=O=C1NCC(=O)N2[C@@H]1C[C@@H](C(=O)O)[C@H]2c1ccc(O)cc1 observation_type="composite Z-score" observed_result=-0.0127
compound=COCCOC(=O)N1C(=O)[C@@]2(c3cc(C#CC4(O)CCCCCC4)ccc31)[C@H](C(N)=O)[C@H]1C(=O)O[C@H](c3ccccc3)[C@H](c3ccccc3)N1[C@@H]2c1ccc(O)cc1 observation_type="composite Z-score" observed_result=-0.014
compound=O=C1O[C@@H](c2ccccc2)[C@@H](c2ccccc2)N2[C@@H](c3ccccc3OCCO)[C@]3(C(=O)Nc4ccc(C#CC5=CCCCC5)cc43)[C@@H](C(=O)NC[C@H](O)c3ccccc3)[C@H]12 observation_type="composite Z-score" observed_result=-0.584
compound="C=CC1c2cc(O)c(OC)cc2CCN1Cc1sc2ccccc2c1Cl (stereo not given)" observation_type="composite Z-score" observed_result=-0.967
compound=Cc1ccc(S[C@]2(C(=O)NCCN3CCOCC3)CC(=O)N(Cc3ccccc3C(F)(F)F)[C@@H]2c2ccc(CO)cc2I)cc1 observation_type="composite Z-score" observed_result=0.139
compound=O=c1cccc(-c2ccc(C(F)(F)F)cc2)o1 observation_type="composite Z-score" observed_result=-0.275
compound=O=C(CS)NCCCCCCNC(=O)[C@@H]1C[C@@H]2C(=O)N3CCC[C@H]3C(=O)N2[C@@H]1c1cccc(OCCO)c1 observation_type="composite Z-score" observed_result=-0.19
compound=O=C(CCCCCCC(=O)Nc1ccccc1)N/N=C/c1ccccc1 observation_type="composite Z-score" observed_result=0.0068
compound="CCCCC(CC)C(O)C1C=CC2C(=O)N(c3ccccc3)C(=O)C2N1Nc1ccc([N+](=O)[O-])cc1 (stereo not given)" observation_type="composite Z-score" observed_result=-0.189
compound="C=C1C2CC3C(=C4C(CO[C@@H]4[C@H]4CCCN4S(=O)(=O)c4ccccc4[N+](=O)[O-])C4C(=O)N(C)C(=O)C34)CC2C(=O)N1C (stereo not given in full)" observation_type="composite Z-score" observed_result=0.79
